# Lookup of reported pKd keyed by entry
Biological target: T1, PUF4 RNA-binding domain (Saccharomyces cerevisiae, UniProt P25339 537-888)
T1 sequence: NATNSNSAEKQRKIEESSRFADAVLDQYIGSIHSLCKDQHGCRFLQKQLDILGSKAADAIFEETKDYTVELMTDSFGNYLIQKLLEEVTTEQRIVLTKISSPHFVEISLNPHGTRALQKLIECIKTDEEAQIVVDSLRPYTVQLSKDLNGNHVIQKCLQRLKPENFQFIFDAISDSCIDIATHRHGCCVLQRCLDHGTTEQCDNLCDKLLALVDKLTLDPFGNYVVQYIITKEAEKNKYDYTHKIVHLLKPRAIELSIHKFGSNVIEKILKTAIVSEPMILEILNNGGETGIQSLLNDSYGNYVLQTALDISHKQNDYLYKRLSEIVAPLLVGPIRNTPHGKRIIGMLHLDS
Experiment: Mg; RNA-MaP; 20 mM Na-HEPES pH 7.4, 30 mM KOAc, 0.75 mM MgCl2, 0.1% Tween-20, 5% glycerol, 0.1 mg/mL BSA, 2 mM DTT; 25 C; 0.0125-409.6 nM protein
Conditions: tags: N-His6-TEV cleaved; C-SNAP kept, Cy3B-labelled; label: tethered on chip by stalled RNA polymerase
FYI, pKd means -log10 of a concentration in mol per litre.

| BINDER | pKd |
| --- | --- |
| UCUCUUUGUACCCUUCUCUU (ssRNA) [Ic_S1_P3E.1_K3.1_C3.1_H3.1_A3.1_[T5C]_[A6C]_F3.1_[T7C]_[A8T]_T3.1] | 7.23 |
| UCUCUUUGUACAAAUCUCUU (ssRNA) [Ic_S1_P3E.1_K3.1_C3.1_H3.1_A3.1_[T5C]_F3.1_[T7A]_T3.1] | 7.00 |
| Ie_S2_P5E.1_K5.1_C5.1_H5.1_[+3TCTC]_A5.1_F5.1_T5.1 (ssRNA) RNA: UUUGAUUAAUAUGAUAUCGUUCUUUCUUGUUCUCAUUAUUAUUCUUUCUCGAUAUCAUAUUAAUCUUU | 7.25 |
| UCUCUUUGUAAAUCUCUCUU (ssRNA) [Ic_S1_P3E.1_K3.1_C3.1_H3.1_A3.1_[T5A]_F3.1_[A8C]_T3.1] | 6.46 |
| Id_iii_S2_P5E.8_K5.4_C5.3_[T-3A]_H5.1_A5.2_F5.1_T5.2 (ssRNA) RNA: UUUGAUUAAUAUGAUAUCGUUCUUUCUACUUGUAAUAUUAUAUUCUUUCUCGAUAUCAUAUUAAUCUUU | 8.09 |

I am curious: what pKd value has been reported for Ic_S4_P4E.1_K4.1_C4.1_H4.1_A4.1_[T5C]_[A6G]_[T7C]_F4.1_T4.1 (ssRNA) RNA: UUUGACAACUGAUCGUUCUUUCUUGUACGCUAUUCUUUCUCGAUCAGUUGUCUUU ?
8.65

Which measured pKd value corresponds to Id_ii_S2_P3E.4_K3.3_C3.2_[T-1C]_H3.3_A3.1_F3.1_T3.2_[T9C]_[A10C] (ssRNA) RNA: UUUGAUUAAUAUGAUAUCGUUCUUUCUCCACACUAUACCUUCUUUCUCGAUAUCAUAUUAAUCUUU ?
5.84

Look up pKd: UCUCUUGCUGUAUAUUAUAUCUCUU (ssRNA) [Id_ii_S1_P4E.2_K4.1_C4.2_[C-2G]_[T-1C]_H4.1_A4.1_F4.1_T4.2_[G10T]_[T11A]]
8.72

Tell me the measured pKd of ACAAACGCUAUAUAUUACAACAAAC (ssRNA) [Id_ii_S3_P4E.3_K4.2_C4.2_[C-2G]_[T-1C]_H4.2_A4.1_F4.1_T4.2_[G10C]_[T11A]] , please.
7.61

So what does the record say about pKd for UCUCUUUGUACGUUCAUCUCUU (ssRNA) [Ic_S1_P5E.1_K5.1_C5.1_H5.1_A5.1_[T5C]_[T6G]_[A7T]_F5.1_[T9C]_T5.1] ?
7.29

Looking for the measured pKd of UCUCUUUGUAACACGGUCUCUU (ssRNA) [Ic_S1_P5E.1_K5.1_C5.1_H5.1_A5.1_[T5A]_[T6C]_F5.1_[T8C]_[T9G]_[A10G]_T5.1] , can you help?
5.68

Which pKd is reported for this binder? Id_ii_S4_P3E.3_K3.2_C3.2_[C-2A]_[T-1A]_H3.2_A3.1_F3.1_T3.2_[T9A]_[A10T] (ssRNA) RNA: UUUGACAACUGAUCGUUCUUUCUAAUAUAUAUAAUUUCUUUCUCGAUCAGUUGUCUUU
6.23
